meta.source: PubChem BioAssay

assay: binders of probe aFGF10 on microarray, primary screen, stem cell growth factor project, biochemical, small-molecule microarray, fluorescence 635/667 (AID 1071); conditions: higher = more signal;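 also: score merges 667 nm spot intensity and signal to noise from triplicate slides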
Outcome Measure: composite z-score
Just the number, please, no unit after it.

# example entries with known answers
{"Molecule": "CC(C)(C)N1CC=CC23O[C@@H]4/C=C\\CCCOC(=O)C4[C@H]2C(=O)N(CCCCCCO)[C@@H]3C1=O (stereo not given in full)", "Measured Number": -0.056}
{"Molecule": "COCCCNC(=O)[C@@]1(Sc2ccc(C)cc2)CC(=O)N(C2CCCCC2)[C@@H]1c1ccc(CO)cc1I", "Measured Number": 0.655}
{"Molecule": "C=C(COC)C(=O)CC[C@@H](OC(=O)c1cccnc1)c1cccc(OCCO)c1", "Measured Number": 0.455}
{"Molecule": "CC(=O)c1ccc(C(O)C2C=CC3C(=O)N(C)C(=O)C3N2NC(=O)OC(C)(C)C)cc1 (stereo not given)", "Measured Number": 1.13}
{"Molecule": "C[C@H]1NC(=O)C([C@@H](C)OCc2ccccc2)NC(=O)[C@@]23C(=O)N[C@@H](Cc4ccccc4)C2[C@H](C)[C@@]2(C)O[C@H]2C3/C=C/C/C=C\\CNC1=O (stereo not given in full)", "Measured Number": 0.817}

Challenge: Returns the measured composite z-score for the input molecule. Input: `C=CCN1C(=O)[C@]2(O[C@H](CCn3cc([C@H](O)c4ccccc4)nn3)[C@@H]([Si](C)(C)c3ccc(OC)cc3)[C@@H]2C)c2cc(N3C(=O)c4cccc5cccc3c45)ccc21`
Response given: 0.73

Challenge: Next molecule: `COc1cccc(C[C@H]2C[C@@H](CO[Si](C(C)C)(C(C)C)C(C)C)N3C(=O)[C@@]4(C(C)=O)O[C@@]23[C@@H]2C(=O)N(C)C(=O)[C@@H]24)c1`
Response given: 0.933

Challenge: Next molecule: `COCCOC(=O)N1C(=O)[C@@]2(c3cc(C#CCC(C(=O)OC)C(=O)OC)ccc31)[C@H](C(=O)N1CCc3cc(OC)c(OC)cc3C1)[C@H]1C(=O)O[C@H](c3ccccc3)[C@H](c3ccccc3)N1[C@@H]2c1ccc(O)cc1`
Response given: 0.858

Challenge: Next molecule: `CCCC=C(CCC)[C@@H](NC(=O)c1ccco1)c1ccc(C(=O)OC)cc1`
Response given: 0.72

Challenge: Next molecule: `COC(=O)[C@]1(CO)N=C(c2ccc(OCCCO)cc2)O[C@@H]1c1ccccc1CN=[N+]=[N-]`
Response given: -0.546

###

tested on: Lefty1; assay: Lefty1 binders on small-molecule microarrays, primary screen, biochemical, small-molecule microarray, 635/667 nm fluorescence (AID 1139); conditions: small-molecule microarray binding, fluorescence 635/667; higher = more signal
Outcome Measure: composite z-score
Just the number, please, no unit after it.

# example entries with known answers
{"Molecule": "C=CCNC(=O)[C@H]1[C@@H]2C(=O)O[C@@H](c3ccccc3)[C@@H](c3ccccc3)N2[C@@H](c2ccc(O)cc2)[C@]12C(=O)Nc1ccc(C#CC3=CCCCC3)cc12", "Measured Number": 0.916}
{"Molecule": "C=CCOC(=O)[C@H]1[C@@H]2C(=O)O[C@@H](c3ccccc3)[C@@H](c3ccccc3)N2[C@@H](c2ccc(OCCOC(=O)[C@H]3C[C@H]4C(=O)NCC(=O)N4[C@H]3c3ccc(O)cc3)cc2)[C@]12C(=O)Nc1ccc(I)cc12", "Measured Number": 0.971}
{"Molecule": "CC[C@H](C)C(=O)O[C@H]1CC[C@]2(C)C3=C(CCC2C1(C)C)[C@]1(C)CC[C@H]([C@H](C)CCCC(C)C)[C@@]1(C)CC3 (some centres undefined)", "Measured Number": 0.721}
{"Molecule": "C=C(COC)C(=O)CC[C@@H](OC(=O)c1cccnc1)c1cccc(OCCO)c1", "Measured Number": 1.19}
{"Molecule": "COc1ccc([Si](C)(C)[C@H]2[C@H](CC(=O)N3Cc4ccccc4C[C@H]3CO)O[C@@]3(C(=O)N(Cc4cccc(N5C(=O)c6cccc7cccc5c67)c4)c4ccccc43)[C@@H]2C)cc1", "Measured Number": 1.53}

Challenge: Returns the measured composite z-score for the input molecule. Input: `CC(C)C(=C=CC[C@@H](O)c1ccc(OCCO)cc1)CCO`
Response given: 0.607

Challenge: Next molecule: `CC(C)[Si](C#CCCCC#N)(O[C@H](c1ccccc1)c1cn([C@H](C)c2ccccc2)nn1)C(C)C`
Response given: 0.739

Challenge: Next molecule: C=CCC(OC(C)=O)[C@@H]1[C@@H](N(Cc2cc3ccccc3o2)C(=O)Cc2ccc(OC)cc2)c2cc(OCCCO)ccc2N1C(=O)Cc1ccc2ccccc2c1 (some centres undefined)
Response given: -0.173

Challenge: Next molecule: `C=C(CCCC)/C(=C/C[C@H](OC(C)=O)c1cccc(OCCO)c1)c1cc(C(=O)OC)ccc1OC`
Response given: 0.283
